Parameter ELISA OD450: see the listing below.
biological target: Mouse VSIG4-His (mouse); assay: ELISA, Fab P.E. 1:5 on coated antigen
Sequence (chain, as listed by the source limits assumed): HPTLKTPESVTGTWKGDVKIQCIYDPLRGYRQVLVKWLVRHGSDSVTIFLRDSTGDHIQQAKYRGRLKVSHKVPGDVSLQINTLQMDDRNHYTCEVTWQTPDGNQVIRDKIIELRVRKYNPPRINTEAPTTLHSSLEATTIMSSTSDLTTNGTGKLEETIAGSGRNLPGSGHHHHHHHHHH
Give the value, in units of OD450, as a plain number.

**Q:** Requested read-out: ELISA OD450. Entry: 16E10 mouse Fab (periplasmic extract) (Fab, V domains shown) VH: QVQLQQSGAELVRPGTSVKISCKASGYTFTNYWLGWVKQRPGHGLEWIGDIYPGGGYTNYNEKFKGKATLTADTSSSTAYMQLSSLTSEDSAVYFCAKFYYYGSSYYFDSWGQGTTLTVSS VL: DIVLTQSPSSLSVSAGEKVTLSCKSSQSLLNSGNQENYLAWYQQKPGQPPKLLIYGASTRESGVPDRFTGSGSGTDFTLTISSVQAEDLAVYYCQNDHSYPLTFGAGTKLELK
**A:** 0.058

**Q:** Requested read-out: ELISA OD450. Entry: 13H11 mouse Fab (periplasmic extract) (Fab, V domains shown) VH: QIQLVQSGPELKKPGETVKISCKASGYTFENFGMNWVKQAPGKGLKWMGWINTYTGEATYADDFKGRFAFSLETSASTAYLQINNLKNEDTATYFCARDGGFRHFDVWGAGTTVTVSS VL: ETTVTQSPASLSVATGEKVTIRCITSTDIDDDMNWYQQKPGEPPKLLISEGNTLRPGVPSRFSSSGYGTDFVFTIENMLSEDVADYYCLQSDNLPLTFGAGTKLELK
**A:** 0.057

**Q:** Requested read-out: ELISA OD450. Entry: 12A12 mouse Fab (periplasmic extract) (Fab, V domains shown) VH: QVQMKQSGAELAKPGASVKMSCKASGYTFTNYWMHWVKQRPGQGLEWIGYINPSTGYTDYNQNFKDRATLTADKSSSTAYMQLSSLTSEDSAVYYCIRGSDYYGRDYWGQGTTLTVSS VL: DIQMTQTTSSLSASLGDRVTISCRASQDISNYLNWYQQKPDGTLKLLIYYTSRLHSGVPSRFSGSGSGTDYSLTISNLEQEDIATYFCRQGNTLPWTFGGGTKLEIK
**A:** 0.063

**Q:** Requested read-out: ELISA OD450. Entry: 16E03 mouse Fab (periplasmic extract) (Fab, V domains shown) VH: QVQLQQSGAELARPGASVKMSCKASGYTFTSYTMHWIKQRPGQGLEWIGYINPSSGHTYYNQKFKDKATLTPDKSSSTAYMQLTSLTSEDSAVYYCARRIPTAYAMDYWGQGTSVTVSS VL: EIQMTQSHKFMSTSVGDRVSITCKASQDVGTAVAWYQQKPGQSPKLLIYWASTRHTGVPDRFTGSGSGTDFTLTISNVQSEDLADYFCQQYSSYPLTFGAGTKLELK
**A:** 0.057

More entries:
**Q:** Requested read-out: ELISA OD450. Entry: 15C03 mouse Fab (periplasmic extract) (Fab, V domains shown) VH: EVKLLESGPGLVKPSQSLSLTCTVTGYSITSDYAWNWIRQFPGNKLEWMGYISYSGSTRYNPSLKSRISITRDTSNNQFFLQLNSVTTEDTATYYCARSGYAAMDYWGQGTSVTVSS VL: ENVLTQSPAIMSASPGEKVTMTCRASSSVSSSYLHWYQQKSGASPKLWIYSTSNLASGVPARFSGSGSGTSYSLTISSVEAEDAATYYCQQYSGYPLTFGSGTKLEIK
**A:** 0.065
